Biological target: T1, human GITR (amino acids M1-V241, NCBI Accession #NP_004186.1) expressed on cells (human, UniProt Q9Y5U5 26-241)
T1 sequence: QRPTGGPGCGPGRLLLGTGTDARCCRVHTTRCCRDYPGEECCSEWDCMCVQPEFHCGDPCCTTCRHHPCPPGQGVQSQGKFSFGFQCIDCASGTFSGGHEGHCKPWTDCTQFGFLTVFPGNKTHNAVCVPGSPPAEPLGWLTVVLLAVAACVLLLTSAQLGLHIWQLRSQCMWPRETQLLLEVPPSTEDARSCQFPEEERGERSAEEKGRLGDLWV
Assay: cell-based or functional assay
outcomeMeasure: fold activation, T-cell proliferation, 22 nM, non-anchored, mean (fold)
Respond with the bare value in fold.

## Input Requested read-out: fold activation, T-cell proliferation, 22 nM, non-anchored, mean. Entry: H4H14476P (antibody, human IgG4, V domains shown, human IgG4 (H4H)) VH: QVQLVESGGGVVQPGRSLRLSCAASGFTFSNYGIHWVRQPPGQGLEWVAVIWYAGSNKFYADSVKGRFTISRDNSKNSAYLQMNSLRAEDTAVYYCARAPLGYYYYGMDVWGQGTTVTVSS VL: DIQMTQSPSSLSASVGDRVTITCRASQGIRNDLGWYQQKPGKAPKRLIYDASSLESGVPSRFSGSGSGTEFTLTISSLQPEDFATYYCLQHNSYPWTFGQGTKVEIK
## Output 0.8

## Input Please answer likewise for H4H14470P (antibody, human IgG4, V domains shown, human IgG4 (H4H)) VH: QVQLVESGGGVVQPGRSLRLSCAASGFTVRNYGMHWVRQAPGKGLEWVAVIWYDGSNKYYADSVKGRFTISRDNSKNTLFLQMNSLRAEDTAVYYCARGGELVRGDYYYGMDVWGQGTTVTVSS VL: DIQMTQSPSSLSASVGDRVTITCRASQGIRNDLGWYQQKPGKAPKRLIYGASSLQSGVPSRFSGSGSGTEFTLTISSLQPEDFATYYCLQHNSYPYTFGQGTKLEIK
## Output 1.1

## Input Input H4H14516P (antibody, human IgG4, V domains shown, human IgG4 (H4H)) VH: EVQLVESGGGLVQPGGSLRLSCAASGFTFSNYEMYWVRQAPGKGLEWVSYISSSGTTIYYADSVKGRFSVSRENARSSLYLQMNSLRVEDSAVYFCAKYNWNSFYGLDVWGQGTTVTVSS VL: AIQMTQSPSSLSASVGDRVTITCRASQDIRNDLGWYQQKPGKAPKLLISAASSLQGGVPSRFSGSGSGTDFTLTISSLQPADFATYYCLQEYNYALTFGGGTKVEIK
## Output 0.9
